- SUBJECT OF TEST: Man(a1-2)Man(a1-3)[Man(a1-2)Man(a1-6)]Man
- EXPERIMENTAL DETAILS: glycan array binding signal (z-score within array); higher = stronger binding
- STATED CONDITIONS: glycan notation: IUPAC condensed, linker removed
Many of the other results were omitted from the sample, so the strongest signals are more common in it than they were.
OBSERVED PROPERTY: glycan array binding signal (z-score)
Respond with the number and no other words.

F17-L (Escherichia coli) (protein) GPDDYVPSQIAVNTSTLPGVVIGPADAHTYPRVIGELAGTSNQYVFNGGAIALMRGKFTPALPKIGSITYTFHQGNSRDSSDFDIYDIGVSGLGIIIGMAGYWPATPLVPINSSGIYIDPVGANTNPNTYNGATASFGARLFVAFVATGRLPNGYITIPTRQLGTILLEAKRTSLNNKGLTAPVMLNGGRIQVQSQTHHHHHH | -0.153
AidA (Burkholderia cenocepacia) (protein) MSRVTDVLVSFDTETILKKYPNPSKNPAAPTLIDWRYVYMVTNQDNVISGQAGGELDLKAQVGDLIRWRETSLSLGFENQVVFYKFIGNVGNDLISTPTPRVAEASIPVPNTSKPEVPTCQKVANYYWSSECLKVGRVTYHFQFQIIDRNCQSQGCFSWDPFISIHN | -0.113
PGP3 (Chlamydia trachomatis), P0CE18 (protein) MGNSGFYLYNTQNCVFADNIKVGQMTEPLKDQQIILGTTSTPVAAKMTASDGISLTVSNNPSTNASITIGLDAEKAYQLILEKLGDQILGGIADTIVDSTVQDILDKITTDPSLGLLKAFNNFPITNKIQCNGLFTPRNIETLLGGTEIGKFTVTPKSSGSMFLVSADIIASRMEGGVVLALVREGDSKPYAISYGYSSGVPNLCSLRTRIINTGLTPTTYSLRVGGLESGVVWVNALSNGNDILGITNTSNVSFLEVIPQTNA | 0.09
SAG3 (Toxoplasma gondii), Q9BJ39 (protein) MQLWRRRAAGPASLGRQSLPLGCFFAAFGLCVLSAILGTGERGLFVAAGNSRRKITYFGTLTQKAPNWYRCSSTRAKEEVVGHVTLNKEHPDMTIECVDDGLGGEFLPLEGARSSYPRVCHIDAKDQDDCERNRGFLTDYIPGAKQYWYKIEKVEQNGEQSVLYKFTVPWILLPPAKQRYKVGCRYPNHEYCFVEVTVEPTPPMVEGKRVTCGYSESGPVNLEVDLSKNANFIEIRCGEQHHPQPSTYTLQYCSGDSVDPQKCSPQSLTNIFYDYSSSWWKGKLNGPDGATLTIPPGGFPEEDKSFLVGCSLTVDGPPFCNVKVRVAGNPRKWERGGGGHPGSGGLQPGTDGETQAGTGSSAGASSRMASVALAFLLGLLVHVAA | -0.088

Turning now to a further record.
Answer with reported glycan array binding signal (z-score) of F4 (Escherichia coli), A0A6L9DDF0 (protein) MKKTLIALALAASAVSGMAHAWTSGDFNGTVDIGGSIDATNYRQKWEWEVGTGLNGFYNALSELTNNDTKLTITVTGNKPILLGRTKEAFVTPTAGGWGGIPQIAFTDYKGAPVELKNPDGETNKGLAYFVLPMKNADGTEAGSVRVNASYAGAVVEKTSDSSAKLFSAYAGEVIRIFNGGLPVNVTQSELQSGVAAADRTALFGSLGKADLVAQFQAVIPGATVTDGTSSEHCTMRLLASAAYALGIADGQTIEATFNQAVTTSTQWSAPLNVAITYY
0.052
